- assay notes: Example 2 multiple rising dose inhaled delta-9-THC study: plasma pharmacokinetics
- condition summary: human, plasma, inhaled, 3.6 mg, AUC(0-inf), Arithmetic Mean (SD), 3.6 mg s.d., Day 1
observed property: AUC(0-inf) (ng·h/mL)
Write down the numeric answer in ng·h/mL and omit the unit.

## Task # lookup: AUC(0-inf) of CCCCCc1cc(O)c2c(c1)OC(C)(C)[C@@H]1CCC(C)=C[C@@H]21 [delta-9-THC, delta-9-tetrahydrocannabinol]
## Result 16.3

----------
- assay notes: Example 2 multiple rising dose inhaled delta-9-THC study: plasma pharmacokinetics
- condition summary: human, plasma, inhaled, 1.2 mg, Cmax, Geometric Mean (Range), 1.2 mg s.d., Day 1, plasma
observed property: Cmax (ng/mL)
Write down the numeric answer in ng/mL and omit the unit.

## Task # lookup: Cmax of CCCCCc1cc(O)c2c(c1)OC(C)(C)[C@@H]1CCC(C)=C[C@@H]21 [delta-9-THC, delta-9-tetrahydrocannabinol]
## Result 19.7

----------
- assay notes: Example 2 multiple rising dose inhaled delta-9-THC study: plasma pharmacokinetics
- condition summary: human, plasma, inhaled, Tmax range, both dose levels, after single and multiple dose administration
- Protocol: A randomized, double-blind, placebo-controlled, multiple rising dose safety, tolerability, pharmacokinetic and pharmacodynamic study to assess two dose levels of inhaled delta-9-THC was conducted. Dose levels were studied in ascending order. […] For both dose levels, the first and the last dose of study drug was given under fasted conditions. […] Based on the results of the interim analyses, the dose level for investigation in Group II was determined. […]
observed property: Tmax

## Task # lookup: Tmax of CCCCCc1cc(O)c2c(c1)OC(C)(C)[C@@H]1CCC(C)=C[C@@H]21 [delta-9-THC, delta-9-tetrahydrocannabinol]
## Result 1.8 to 4.8 min

----------
- assay notes: Example 2 multiple rising dose inhaled delta-9-THC study: plasma pharmacokinetics
- condition summary: human, plasma, inhaled, 1.2 mg, AUC(0-8), Arithmetic Mean (SD), 1.2 mg m.d., Day 12, Group I
observed property: AUC(0-t)
Please answer using the number first and the unit second.

## Task # lookup: AUC(0-t) of CCCCCc1cc(O)c2c(c1)OC(C)(C)[C@@H]1CCC(C)=C[C@@H]21 [delta-9-THC, delta-9-tetrahydrocannabinol]
## Result 5.74 ng·h/mL

----------
- assay notes: Example 2 multiple rising dose inhaled delta-9-THC study: plasma pharmacokinetics
- condition summary: human, plasma, inhaled, 3.6 mg, Cmax, Arithmetic Mean (SD), 3.6 mg m.d., Day 19, Group II
observed property: Cmax (ng/mL)
Write down the numeric answer in ng/mL and omit the unit.

## Task # lookup: Cmax of CCCCCc1cc(O)c2c(c1)OC(C)(C)[C@@H]1CCC(C)=C[C@@H]21 [delta-9-THC, delta-9-tetrahydrocannabinol]
## Result 40.4

----------
- assay notes: Example 2 multiple rising dose inhaled delta-9-THC study: plasma pharmacokinetics
- condition summary: human, plasma, inhaled, 1.2 mg, AUC(0-inf), Geometric Mean (Range), 1.2 mg s.d., Day 1
observed property: AUC(0-inf) (ng·h/mL)
Write down the numeric answer in ng·h/mL and omit the unit.

## Task # lookup: AUC(0-inf) of CCCCCc1cc(O)c2c(c1)OC(C)(C)[C@@H]1CCC(C)=C[C@@H]21 [delta-9-THC, delta-9-tetrahydrocannabinol]
## Result 6.55

----------
- assay notes: Example 2 multiple rising dose inhaled delta-9-THC study: plasma pharmacokinetics
- condition summary: human, plasma, inhaled, 1.2 mg, t½, Geometric Mean (Range), 1.2 mg m.d., Day 12, Group I
observed property: half-life (h)
Write down the numeric answer in h and omit the unit.

## Task # lookup: half-life of CCCCCc1cc(O)c2c(c1)OC(C)(C)[C@@H]1CCC(C)=C[C@@H]21 [delta-9-THC, delta-9-tetrahydrocannabinol]
## Result 25.3
